# Target or system: UniProt P17706
# Sequence (P17706 whole entry): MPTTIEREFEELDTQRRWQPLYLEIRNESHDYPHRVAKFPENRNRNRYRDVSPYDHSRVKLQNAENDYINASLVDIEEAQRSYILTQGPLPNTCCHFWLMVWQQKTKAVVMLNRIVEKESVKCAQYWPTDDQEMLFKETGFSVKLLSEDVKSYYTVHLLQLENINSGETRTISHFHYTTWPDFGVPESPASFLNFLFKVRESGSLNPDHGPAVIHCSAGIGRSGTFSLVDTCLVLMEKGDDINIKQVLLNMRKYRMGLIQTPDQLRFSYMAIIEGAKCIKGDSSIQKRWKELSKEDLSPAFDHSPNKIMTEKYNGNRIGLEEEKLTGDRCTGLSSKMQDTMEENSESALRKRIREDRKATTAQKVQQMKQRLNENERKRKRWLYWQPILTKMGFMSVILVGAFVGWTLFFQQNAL
Attribute measured: log10 of IC50 (log10 of the value in µM)
Base-10 log of IC50, unit µM.

sample_smiles=O=[N+]([O-])c1ccc(S(=O)(=O)Nc2ccc(-c3nc4cc(NS(=O)(=O)c5ccc([N+](=O)[O-])cc5)ccc4o3)cc2)cc1 attribute_measured="log10 of IC50" quantitative_result=1.45

Proceed to the following item.
[Q] Tell me the measured log10 of IC50 of COc1ccc(Cl)cc1S(=O)(=O)Nc1ccc(-c2nc3cc(NS(=O)(=O)c4ccc(Cl)s4)ccc3o2)cc1 , please.
[A] 1.20
